- TEST PROTOCOL: xn = mol fraction of the nth substance listed
- ASSAY CONTEXT: 303.15 K; 100 kPa; Liquid; Falling or rolling sphere viscometry; x1 = 0.25
Below, each entry is listed alongside its reported viscosity.
Only the number, expressed in mPa·s, is required.

- C[N+](C)(C)Cc1ccccc1.[Cl-] [trimethylbenzylammonium chloride] + OCCO: 35.9
- C[N+](C)(C)Cc1ccccc1.[Cl-] [trimethylbenzylammonium chloride] + OCCOCCO: 74.8
- CCCC[N+](CCCC)(CCCC)Cc1ccccc1.[Cl-] [benzyltributylammonium chloride] + OCCO: 211

Consider CCCC[N+](CCCC)(CCCC)Cc1ccccc1.[Cl-] [benzyltributylammonium chloride] + OCCOCCO . Its measured viscosity is 224.9

====

- TEST PROTOCOL: refractive index (Na D-line) (dimensionless); xn = mol fraction of the nth substance listed
- ASSAY CONTEXT: 293.15 K; 100 kPa; Liquid; Standard Abbe refractometry; x1 = 0.25
REPORTED PROPERTY: refractive index
Hey, just send me the number, nothing else.

Look over these answered cases.
• C[N+](C)(C)Cc1ccccc1.[Cl-] [trimethylbenzylammonium chloride] + OCCO = 1.4966
• CCCC[N+](CCCC)(CCCC)Cc1ccccc1.[Cl-] [benzyltributylammonium chloride] + OCCOCCOCCO = 1.4906
• CCCC[N+](CCCC)(CCCC)Cc1ccccc1.[Cl-] [benzyltributylammonium chloride] + OCCO = 1.4963

Please turn your attention to the following entry.
Given item C[N+](C)(C)Cc1ccccc1.[Cl-] [trimethylbenzylammonium chloride] + OCC(O)CO , the value recorded as its refractive index is 1.5102

====

- TEST PROTOCOL: xn = mol fraction of the nth substance listed
- ASSAY CONTEXT: 313.15 K; 100 kPa; Liquid; Single path-length method; x1 = 0.25
Each record here notes measured speed of sound.
Output spec: scalar in m/s, unitless text.

Recorded results for 2 compounds are shown here.
- CCCC[N+](CCCC)(CCCC)Cc1ccccc1.[Cl-] [benzyltributylammonium chloride] + OCCOCCO: 1615.6
- C[N+](C)(C)Cc1ccccc1.[Cl-] [trimethylbenzylammonium chloride] + OCCOCCO: 1705.3

So for C[N+](C)(C)Cc1ccccc1.[Cl-] [trimethylbenzylammonium chloride] + OCCOCCOCCO , the logged speed of sound turned out to be 1688.5

For C[N+](C)(C)Cc1ccccc1.[Cl-] [trimethylbenzylammonium chloride] + OCC(O)CO the compound record lists speed of sound as 1897.2

Per the records, this compound ( C[N+](C)(C)Cc1ccccc1.[Cl-] [trimethylbenzylammonium chloride] + OCCO ) has speed of sound equal to 1780.2

Item: CCCC[N+](CCCC)(CCCC)Cc1ccccc1.[Cl-] [benzyltributylammonium chloride] + OCC(O)CO | speed of sound: 1743.5

Short answer for CCCC[N+](CCCC)(CCCC)Cc1ccccc1.[Cl-] [benzyltributylammonium chloride] + OCCOCCOCCO : speed of sound was 1614.3

Input CCCC[N+](CCCC)(CCCC)Cc1ccccc1.[Cl-] [benzyltributylammonium chloride] + OCCO . Output speed of sound: 1635.2

====

Consider the following molecules and their measured viscosity readings.
- TEST PROTOCOL: xn = mol fraction of the nth substance listed
- ASSAY CONTEXT: 338.15 K; 100 kPa; Liquid; Falling or rolling sphere viscometry; x1 = 0.25
Your answer is read as mPa·s, so omit the unit and give the number.

* C[N+](C)(C)Cc1ccccc1.[Cl-] [trimethylbenzylammonium chloride] + OCCOCCOCCO | 34.3
* C[N+](C)(C)Cc1ccccc1.[Cl-] [trimethylbenzylammonium chloride] + OCCO | 10.7
* CCCC[N+](CCCC)(CCCC)Cc1ccccc1.[Cl-] [benzyltributylammonium chloride] + OCCOCCOCCO | 34.9

// viscosity lookup, molecule = C[N+](C)(C)Cc1ccccc1.[Cl-] [trimethylbenzylammonium chloride] + OCC(O)CO , result: 58.2

// field: viscosity; key: CCCC[N+](CCCC)(CCCC)Cc1ccccc1.[Cl-] [benzyltributylammonium chloride] + OCC(O)CO ; value = 138.1

Lab note: measured viscosity of CCCC[N+](CCCC)(CCCC)Cc1ccccc1.[Cl-] [benzyltributylammonium chloride] + OCCO was 34.9

In plain terms, CCCC[N+](CCCC)(CCCC)Cc1ccccc1.[Cl-] [benzyltributylammonium chloride] + OCCOCCO has a documented viscosity of 40.68

Kindly note the recorded viscosity for C[N+](C)(C)Cc1ccccc1.[Cl-] [trimethylbenzylammonium chloride] + OCCOCCO , which is 16
